Listing of entries alongside the reported IC50.
- testTarget: human serotonin transporter (Homo sapiens, UniProt P31645)
- Sequence (P31645 whole entry): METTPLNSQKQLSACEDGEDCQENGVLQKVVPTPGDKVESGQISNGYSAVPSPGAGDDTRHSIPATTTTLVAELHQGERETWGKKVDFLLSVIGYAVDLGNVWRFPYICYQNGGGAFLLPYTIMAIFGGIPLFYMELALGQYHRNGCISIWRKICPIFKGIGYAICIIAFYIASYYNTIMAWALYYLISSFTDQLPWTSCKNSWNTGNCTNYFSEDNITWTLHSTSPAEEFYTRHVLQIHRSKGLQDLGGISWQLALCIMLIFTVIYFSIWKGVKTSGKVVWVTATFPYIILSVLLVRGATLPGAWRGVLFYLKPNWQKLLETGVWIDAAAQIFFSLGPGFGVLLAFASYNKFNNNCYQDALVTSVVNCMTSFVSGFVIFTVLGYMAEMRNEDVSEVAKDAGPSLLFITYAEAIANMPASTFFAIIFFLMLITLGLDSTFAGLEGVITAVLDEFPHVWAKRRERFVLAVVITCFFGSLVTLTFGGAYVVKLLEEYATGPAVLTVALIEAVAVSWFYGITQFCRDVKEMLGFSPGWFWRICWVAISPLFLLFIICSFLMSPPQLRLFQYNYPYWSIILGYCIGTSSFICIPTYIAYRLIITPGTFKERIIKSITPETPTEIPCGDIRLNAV
Where a name gives a salt, the structure may show the parent alone.
Write it as a number; the unit nM goes unstated.

Worked cases, IC50 given:
• Cc1c(C(=O)NCCCN2CCN(c3cccc(Cl)c3Cl)CC2)cc(-c2ccccc2)n1N1CCCCC1 = 298
• CCn1c(-c2ccccc2)cc(C(=O)NCCCN2CCN(c3cccc(Cl)c3)CC2)c1C = 25.8
• Cc1c(C(=O)NCCCN2CCN(c3cccc(Cl)c3)CC2)cc(-c2ccccc2)n1C = 11.1
• Cc1cccc(N2CCN(CCCNC(=O)c3cc(-c4ccccc4)n(Cc4ccccc4)c3C)CC2)c1C = 14.3
• CCn1c(-c2ccc(OC)cc2)cc(C(=O)NCCCN2CCN(c3cccc(Cl)c3Cl)CC2)c1C [Example 75, hydrochloride] = 100

Reading of IC50 for "Cc1cccc(N2CCN(CCCNC(=O)c3cc(-c4ccccc4)n(CC(C)C)c3C)CC2)c1C" with human serotonin transporter (Homo sapiens, UniProt P31645): 350

Reading of IC50 for Cc1cccc(N2CCN(CCCCNC(=O)c3cc(-c4ccc(Cl)cc4)[nH]c3C)CC2)c1C [Example 46, hydrochloride] with human serotonin transporter (Homo sapiens, UniProt P31645): 98

Reading of IC50 for "Cc1c(C(=O)NCCCN2CCN(c3ccc(F)cc3)CC2)cc(-c2ccccc2)n1C" with human serotonin transporter (Homo sapiens, UniProt P31645): 183

Reading of IC50 for "Cc1[nH]c(-c2ccccc2)cc1C(=O)NCCCN1CCN(c2cccc(Cl)c2)CC1" with human serotonin transporter (Homo sapiens, UniProt P31645): 92

Reading of IC50 for Cc1[nH]c(-c2ccc(Cl)cc2)cc1C(=O)NCCCCN1CCN(c2cccc(Cl)c2Cl)CC1 [Example 47, hydrochloride] with human serotonin transporter (Homo sapiens, UniProt P31645): 122

Reading of IC50 for "O=C(NCCCN1CCN(c2cccc(Cl)c2Cl)CC1)c1cc(-c2ccccc2)[nH]c1Cl" with human serotonin transporter (Homo sapiens, UniProt P31645): 59

Reading of IC50 for "Cc1c(C(=O)NCCCN2CCN(c3cccc(Cl)c3Cl)CC2)cc(-c2ccccc2)n1-c1ccc(F)cc1" with human serotonin transporter (Homo sapiens, UniProt P31645): 266

Reading of IC50 for Cc1c(C(=O)NCCCCN2CCN(c3cccc(Cl)c3Cl)CC2)cc(-c2ccccc2)n1C [Example 36, hydrochloride] with human serotonin transporter (Homo sapiens, UniProt P31645): 93

Reading of IC50 for CCn1c(-c2ccc(Cl)cc2)cc(C(=O)NCCN2CCN(c3cccc(Cl)c3Cl)CC2)c1C [Example 69, hydrochloride] with human serotonin transporter (Homo sapiens, UniProt P31645): 220

Reading of IC50 for COc1ccc(-c2cc(C(=O)NCCCN3CCN(c4cccc(Cl)c4Cl)CC3)c(C)n2C)cc1 [Example 74, hydrochloride] with human serotonin transporter (Homo sapiens, UniProt P31645): 76.2

Reading of IC50 for "Cc1c(C(=O)NCCCN2CCN(c3cccc(Cl)c3Cl)CC2)cc(-c2ccccc2)n1C" with human serotonin transporter (Homo sapiens, UniProt P31645): 61.7

Reading of IC50 for "CCn1c(-c2ccccc2)cc(C(=O)NCCCN2CCN(c3cccc(Cl)c3Cl)CC2)c1C" with human serotonin transporter (Homo sapiens, UniProt P31645): 182

Reading of IC50 for Cc1c(C(=O)NCCCN2CCN(c3ccc(Cl)cc3Cl)CC2)cc(-c2ccccc2)n1C [Example 154, hydrochloride] with human serotonin transporter (Homo sapiens, UniProt P31645): 23

Reading of IC50 for Cc1[nH]c(C(C)(C)C)cc1C(=O)NCCCN1CCN(c2cccc(Cl)c2Cl)CC1 [Example 127, hydrochloride] with human serotonin transporter (Homo sapiens, UniProt P31645): 860

Reading of IC50 for CCCn1c(C)c(C(=O)NCCCN2CCN(c3cccc(Cl)c3Cl)CC2)c(C)c1-c1ccccc1 [Example 81, hydrochloride] with human serotonin transporter (Homo sapiens, UniProt P31645): 78
